# tgt: Adenine DNA glycosylase (Homo sapiens) (UniProt Q9UIF7)
# Sequence (Q9UIF7 whole entry): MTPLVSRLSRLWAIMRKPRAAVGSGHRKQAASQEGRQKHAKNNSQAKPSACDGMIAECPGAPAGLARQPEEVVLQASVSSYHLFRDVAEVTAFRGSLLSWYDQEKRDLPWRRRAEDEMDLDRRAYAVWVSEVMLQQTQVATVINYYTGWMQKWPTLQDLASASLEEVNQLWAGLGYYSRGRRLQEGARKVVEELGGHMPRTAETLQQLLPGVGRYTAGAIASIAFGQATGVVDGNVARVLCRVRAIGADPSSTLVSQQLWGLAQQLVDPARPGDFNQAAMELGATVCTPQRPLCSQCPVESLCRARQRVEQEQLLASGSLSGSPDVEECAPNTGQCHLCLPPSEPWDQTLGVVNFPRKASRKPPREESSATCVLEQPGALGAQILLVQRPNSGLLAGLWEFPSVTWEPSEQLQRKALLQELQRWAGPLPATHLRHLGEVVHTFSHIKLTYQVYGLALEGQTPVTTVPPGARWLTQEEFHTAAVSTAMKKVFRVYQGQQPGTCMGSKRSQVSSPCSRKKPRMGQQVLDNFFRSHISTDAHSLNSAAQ
# run_conditions: Compound Concentration 10.0 uM, Hit No;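 also: human MUTYH activity read as 594 nm fluorescence from cleavage and release of a quenched DNA duplex, coupled with APE1 for strand incision, lower signal meaning inhibition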
# Description: Inhibition of MUTYH by quantifying inhibition of MUTYH-mediated cleavage and dissociation of quenched duplex DNA oligonucleotides, measured as fluorescence at 594 nm. To generate a functional strand incision and increase turn-over this assay is coupled to APE1.
*1 amine or outer side, *2 acyl side, *3 side chain or, on linkers, in order; H or OH if unused. Where a SMILES comes first, the peptide text is derived from it. Bridges are numbered along the chain shown (N, C = ends). X1 = O=C(CCC[*:2])[*:1]
Overview of reported inhibition across a group of molecules:
Numbers only here, please. The scale is %.

Note inhibition for the molecule shown: O=C(c1ccc2c(ccn2-c2ccc(F)cc2)c1)N1CC(N2CCN(C(=O)c3nccs3)CC2)C1 -6.82

Give inhibition for CC[C@H](C)[C@@H]1NC(=O)[C@H](Cc2ccc(OC)cc2)NC(=O)CCCSC[C@@H](C(=O)N2CCC[C@H]2C(=O)N[C@@H](CC(C)C)C(=O)NCC(N)=O)NC(=O)[C@H](CC(N)=O)NC(=O)[C@H](CCC(N)=O)NC1=O (Y(Me)IQNCPLG-NH2; linker N-5 via X1) -1

Indicate the recorded inhibition value for this molecule: CC(C)[C@@H]1CC[C@@H](C)C[C@@H]1P(=O)(c1ccccc1)c1ccccc1 1.29

Provide one value: measured inhibition of O=C(Nc1cccnn1)N1CC(C/C=C/c2cncc(Oc3ccc(C(F)(F)F)cn3)n2)C1 -2.62

Supply measured inhibition of CC(C)Cc1ccc([C@@H](C)C(=O)NS(C)(=O)=O)cc1 in your reply. 19

Quickly give me recorded inhibition for CC(C)(C)c1ccc(S(=O)(=O)Nc2ccc(Cl)cc2C(=O)c2cc[n+]([O-])cc2)cc1 -4.97

Name the recorded inhibition of the molecule listed here: COCCOCCn1nc2c(c1C)-c1c(Cl)ccc3c1c(C)c(C(=O)O)n3CCCOc1cc(cc3c(F)c(Cl)ccc13)CCc1cc(nn1C)CSC2 36

Quick one: give measured inhibition for CCc1ccc(N(CC(C)C)S(=O)(=O)c2ccc(OCC3CCOCC3)c(CO)c2)cc1 7

Given the molecule CN1CCC(C(=O)c2cccc(NC(=O)c3c(F)cc(F)cc3F)n2)CC1 , write its reported inhibition. 9.62
